Listing of entries alongside the reported inhibition.
Target: Mitogen-activated protein kinase 14 (Homo sapiens)
Assay: Inhibition of p38alpha (unknown origin) at 30 uM by microfluidic mobility shift assay relative to control

compound | inhibition
c1nc(N2CCC3(CCCCN3)CC2)c2nc[nH]c2n1 | 3%
O=S(=O)(c1cccc2cnccc12)N1CCC2(CCCNC2)CC1 | 9%
O=C(C1CCC2(CCN(c3ncnc4[nH]cnc34)CC2)NC1)N1CCOCC1 (racemic) | 9%
c1nc(N2CCC3(CCNC3)CC2)c2nc[nH]c2n1 | 3%
O=S(=O)(c1cccc2cnccc12)N1CCC2(CCNC2)CC1 | 9%

---

Listing of entries alongside the reported inhibition.
Biological target: MAP kinase-activated protein kinase 2 (Homo sapiens)
Assay: Inhibition of MK2 (unknown origin) at 30 uM by microfluidic mobility shift assay relative to control

compound | inhibition / %
O=S(=O)(c1cccc2cnccc12)N1CCCC2(CCCNC2)C1 (stereo unspecified) | 4
O=S(=O)(c1cccc2cnccc12)N1CCCC2(CCNCC2)C1 | 0
O=C(O)C1CCC2(CCN(c3ncnc4[nH]cnc34)CC2)NC1 (racemic) | 21
O=S(=O)(c1cccc2cnccc12)N1CCC2(CC1)CC(O)CCN2 (racemic) | 1
O=S(=O)(c1cccc2cnccc12)N1CCC2(CCCCN2)CC1 | 14
CN(C)C(=O)C1CCC2(CCN(c3ncnc4[nH]cnc34)CC2)NC1 (racemic) | 10
O=C(C1CCC2(CCN(c3ncnc4[nH]cnc34)CC2)NC1)N1CCOCC1 (racemic) | 11
O=S(=O)(c1cccc2cnccc12)N1CCC2(CCCN2)CC1 | 27
c1nc(N2CCCC3(CCNCC3)C2)c2nc[nH]c2n1 | 19
c1nc(N2CCC3(CCCN3)CC2)c2nc[nH]c2n1 | 48
OCC1CCC2(CCN(c3ncnc4[nH]cnc34)CC2)NC1 (racemic) | 22
c1ccc(C2CCC3(CCN(c4ncnc5[nH]cnc45)CC3)NC2)cc1 (stereo unspecified) | 17
c1ccc(CC2CCC3(CCN(c4ncnc5[nH]cnc45)CC3)NC2)cc1 (racemic) | 15
O=S(=O)(c1cccc2cnccc12)N1CCCC12CCNCC2 | 10
c1ccc(C2CCNC3(CCN(c4ncnc5[nH]cnc45)CC3)C2)cc1 (racemic) | 3
O=S(=O)(c1cccc2cnccc12)N1CCC2(CCC(O)CN2)CC1 (racemic) | 19
c1nc(N2CCC3(CCCCC3)CC2)c2nc[nH]c2n1 | 10
NC1(Cc2ccccc2)CCN(S(=O)(=O)c2cccc3cnccc23)CC1 | 0
c1nc(N2CCC3(CCNC3)CC2)c2nc[nH]c2n1 | 66
COC(=O)C1CCC2(CCN(c3ncnc4[nH]cnc34)CC2)NC1 (racemic) | 6
c1nc(N2CCC3(CCCCN3)CC2)c2nc[nH]c2n1 | 24

---

Listing of entries alongside the reported inhibition.
Biological target: Insulin receptor (Homo sapiens)
Experiment: Inhibition of INSR (unknown origin) at 30 uM by microfluidic mobility shift assay relative to control

compound | inhibition (%)
NC1(Cc2ccccc2)CCN(S(=O)(=O)c2cccc3cnccc23)CC1 | 4
OCC1CCC2(CCN(c3ncnc4[nH]cnc34)CC2)NC1 (racemic) | 17
c1nc(N2CCCC3(CCNCC3)C2)c2nc[nH]c2n1 | 3
c1nc(N2CCC3(CCNC3)CC2)c2nc[nH]c2n1 | 6
O=S(=O)(c1cccc2cnccc12)N1CCCC12CCNCC2 | 3
OC1CCC2(CCN(c3ncnc4[nH]cnc34)CC2)NC1 (racemic) | 4
O=S(=O)(c1cccc2cnccc12)N1CCC2(CCCN2)CC1 | 0
O=C(O)C1CCC2(CCN(c3ncnc4[nH]cnc34)CC2)NC1 (racemic) | 44
O=S(=O)(NCCNC/C=C/c1ccc(Br)cc1)c1cccc2cnccc12 | 29
c1ccc(C2CCC3(CCN(c4ncnc5[nH]cnc45)CC3)NC2)cc1 (configuration not stated) | 31
O=C(C1CCC2(CCN(c3ncnc4[nH]cnc34)CC2)NC1)N1CCOCC1 (racemic) | 16
CNC(=O)C1CCC2(CCN(c3ncnc4[nH]cnc34)CC2)NC1 (racemic) | 16
O=S(=O)(c1cccc2cnccc12)N1CCCC2(CCCNC2)C1 (configuration not stated) | 5
c1ccc(C2CCNC3(CCN(c4ncnc5[nH]cnc45)CC3)C2)cc1 (racemic) | 2
c1nc(N2CCC3(CCCCN3)CC2)c2nc[nH]c2n1 | 4
NC1(Cc2ccccc2)CCN(c2ncnc3[nH]cnc23)CC1 | 0
O=S(=O)(c1cccc2cnccc12)N1CCC2(CCCCN2)CC1 | 3

---

Biological target: Proto-oncogene tyrosine-protein kinase Src (Homo sapiens)
Sequence (P12931 2-536 limits assumed): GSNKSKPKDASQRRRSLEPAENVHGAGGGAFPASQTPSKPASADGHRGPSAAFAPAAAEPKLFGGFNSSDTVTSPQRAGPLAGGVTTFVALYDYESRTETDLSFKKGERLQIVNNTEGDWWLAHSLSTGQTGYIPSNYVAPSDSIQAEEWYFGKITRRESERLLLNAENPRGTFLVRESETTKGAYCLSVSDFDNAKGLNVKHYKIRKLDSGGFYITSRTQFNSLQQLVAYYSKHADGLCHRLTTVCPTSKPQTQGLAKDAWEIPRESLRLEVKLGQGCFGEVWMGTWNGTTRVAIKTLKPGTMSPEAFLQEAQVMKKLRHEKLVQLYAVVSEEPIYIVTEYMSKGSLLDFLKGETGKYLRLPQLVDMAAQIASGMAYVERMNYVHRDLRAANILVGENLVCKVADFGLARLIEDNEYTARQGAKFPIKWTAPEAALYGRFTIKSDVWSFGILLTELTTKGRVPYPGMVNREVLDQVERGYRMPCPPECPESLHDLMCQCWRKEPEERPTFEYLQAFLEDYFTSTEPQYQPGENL
Test: Inhibition of SRC (unknown origin) at 30 uM by microfluidic mobility shift assay relative to control
Binary classification by inhibition, with 40% as an inclusive lower bound for Y; all other cases are N.

molecule | answer_label
O=C(O)C1CCC2(CCN(c3ncnc4[nH]cnc34)CC2)NC1 (racemic) | N
c1ccc(C2CCC3(CCN(c4ncnc5[nH]cnc45)CC3)NC2)cc1 (stereo not drawn) | N
c1nc(N2CCC3(CCNC3)CC2)c2nc[nH]c2n1 | Y
O=S(=O)(c1cccc2cnccc12)N1CCCC2(CCNCC2)C1 | N
O=S(=O)(c1cccc2cnccc12)N1CCC2(CCCCN2)CC1 | N
OC1CCC2(CCN(c3ncnc4[nH]cnc34)CC2)NC1 (racemic) | N
c1ccc(C2CCNC3(CCN(c4ncnc5[nH]cnc45)CC3)C2)cc1 (racemic) | Y
c1nc(N2CCC3(CCCCO3)CC2)c2nc[nH]c2n1 | Y

---

Target: Serine/threonine-protein kinase Chk2 (Homo sapiens)
Sequence (O96017 whole entry): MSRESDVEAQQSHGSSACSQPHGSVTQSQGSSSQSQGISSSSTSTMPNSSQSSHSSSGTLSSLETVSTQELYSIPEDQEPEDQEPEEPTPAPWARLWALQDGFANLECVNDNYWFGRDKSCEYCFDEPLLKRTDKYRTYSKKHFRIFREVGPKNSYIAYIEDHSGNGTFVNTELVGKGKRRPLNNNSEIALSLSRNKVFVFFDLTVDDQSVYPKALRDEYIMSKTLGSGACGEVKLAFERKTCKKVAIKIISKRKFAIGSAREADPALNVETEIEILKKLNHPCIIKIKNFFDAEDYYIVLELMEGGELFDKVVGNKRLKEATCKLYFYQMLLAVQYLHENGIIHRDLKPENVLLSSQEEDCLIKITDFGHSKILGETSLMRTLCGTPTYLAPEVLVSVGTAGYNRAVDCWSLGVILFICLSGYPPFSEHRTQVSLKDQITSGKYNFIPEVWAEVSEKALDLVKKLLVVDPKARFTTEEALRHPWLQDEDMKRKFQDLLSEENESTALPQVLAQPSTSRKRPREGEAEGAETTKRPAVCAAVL
Assay: Inhibition of CHK2 (unknown origin) at 30 uM by microfluidic mobility shift assay relative to control
Classification field. Basis: inhibition. Definitions: bucket 1 = under 30%, bucket 2 = from 30% up to 60%, bucket 3 = 60% and over

molecule | answer_label
O=S(=O)(c1cccc2cnccc12)N1CCC2(CC1)CC(O)CCN2 (racemic) | bucket 2
c1nc(N2CCCC23CCNCC3)c2nc[nH]c2n1 | bucket 1
c1nc(N2CCC3(CCCCC3)CC2)c2nc[nH]c2n1 | bucket 1
c1nc(N2CCCC3(CCCNC3)C2)c2nc[nH]c2n1 (stereo unspecified) | bucket 1
OC1CCNC2(CCN(c3ncnc4[nH]cnc34)CC2)C1 (racemic) | bucket 2
O=S(=O)(c1cccc2cnccc12)N1CCCC12CCNCC2 | bucket 1
c1ccc(CC2CCC3(CCN(c4ncnc5[nH]cnc45)CC3)NC2)cc1 (racemic) | bucket 2
c1nc(N2CCC3(CCCN3)CC2)c2nc[nH]c2n1 | bucket 3
O=S(=O)(c1cccc2cnccc12)N1CCCC2(CCNCC2)C1 | bucket 1
c1ccc(C2CCC3(CCN(c4ncnc5[nH]cnc45)CC3)NC2)cc1 (stereo unspecified) | bucket 2
CNC(=O)C1CCC2(CCN(c3ncnc4[nH]cnc34)CC2)NC1 (racemic) | bucket 2
c1nc(N2CCC3(CCCCN3)CC2)c2nc[nH]c2n1 | bucket 2
CN(C)C(=O)C1CCC2(CCN(c3ncnc4[nH]cnc34)CC2)NC1 (racemic) | bucket 1
c1nc(N2CCC3(CCNC3)CC2)c2nc[nH]c2n1 | bucket 3
c1nc(N2CCC3(CCCNC3)CC2)c2nc[nH]c2n1 | bucket 3
c1ccc(C2CCNC3(CCN(c4ncnc5[nH]cnc45)CC3)C2)cc1 (racemic) | bucket 3

---

Listing of entries alongside the reported inhibition.
Molecular target: Glycogen synthase kinase-3 beta (Homo sapiens, UniProt P49841)
Sequence (P49841 whole entry, looked up): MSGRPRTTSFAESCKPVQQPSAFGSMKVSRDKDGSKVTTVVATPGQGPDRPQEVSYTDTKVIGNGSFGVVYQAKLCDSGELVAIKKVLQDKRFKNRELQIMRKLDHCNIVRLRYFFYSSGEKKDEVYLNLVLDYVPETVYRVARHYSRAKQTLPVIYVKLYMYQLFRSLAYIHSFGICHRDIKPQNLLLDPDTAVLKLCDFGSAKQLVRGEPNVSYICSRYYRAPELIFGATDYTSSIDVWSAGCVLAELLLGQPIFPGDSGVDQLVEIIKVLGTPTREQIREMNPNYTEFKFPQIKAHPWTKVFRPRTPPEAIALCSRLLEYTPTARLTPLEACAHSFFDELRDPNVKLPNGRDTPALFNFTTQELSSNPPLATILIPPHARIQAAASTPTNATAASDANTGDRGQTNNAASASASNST
Assay: Inhibition of GSK3beta (unknown origin) at 30 uM by microfluidic mobility shift assay relative to control
recorded_endpoint: inhibition

compound | measured_on | recorded_endpoint | data_value
O=S(=O)(c1cccc2cnccc12)N1CCCC2(CCCNC2)C1 (stereo not drawn) | Glycogen synthase kinase-3 beta (Homo sapiens, UniProt P49841) | inhibition | 14%
c1nc(N2CCCC23CCNCC3)c2nc[nH]c2n1 | Glycogen synthase kinase-3 beta (Homo sapiens, UniProt P49841) | inhibition | 43%
CN(C)C(=O)C1CCC2(CCN(c3ncnc4[nH]cnc34)CC2)NC1 (racemic) | Glycogen synthase kinase-3 beta (Homo sapiens, UniProt P49841) | inhibition | 7%

---

Molecular target: Ribosomal protein S6 kinase alpha-5 (Homo sapiens, UniProt O75582)
Sequence (O75582 whole entry, looked up): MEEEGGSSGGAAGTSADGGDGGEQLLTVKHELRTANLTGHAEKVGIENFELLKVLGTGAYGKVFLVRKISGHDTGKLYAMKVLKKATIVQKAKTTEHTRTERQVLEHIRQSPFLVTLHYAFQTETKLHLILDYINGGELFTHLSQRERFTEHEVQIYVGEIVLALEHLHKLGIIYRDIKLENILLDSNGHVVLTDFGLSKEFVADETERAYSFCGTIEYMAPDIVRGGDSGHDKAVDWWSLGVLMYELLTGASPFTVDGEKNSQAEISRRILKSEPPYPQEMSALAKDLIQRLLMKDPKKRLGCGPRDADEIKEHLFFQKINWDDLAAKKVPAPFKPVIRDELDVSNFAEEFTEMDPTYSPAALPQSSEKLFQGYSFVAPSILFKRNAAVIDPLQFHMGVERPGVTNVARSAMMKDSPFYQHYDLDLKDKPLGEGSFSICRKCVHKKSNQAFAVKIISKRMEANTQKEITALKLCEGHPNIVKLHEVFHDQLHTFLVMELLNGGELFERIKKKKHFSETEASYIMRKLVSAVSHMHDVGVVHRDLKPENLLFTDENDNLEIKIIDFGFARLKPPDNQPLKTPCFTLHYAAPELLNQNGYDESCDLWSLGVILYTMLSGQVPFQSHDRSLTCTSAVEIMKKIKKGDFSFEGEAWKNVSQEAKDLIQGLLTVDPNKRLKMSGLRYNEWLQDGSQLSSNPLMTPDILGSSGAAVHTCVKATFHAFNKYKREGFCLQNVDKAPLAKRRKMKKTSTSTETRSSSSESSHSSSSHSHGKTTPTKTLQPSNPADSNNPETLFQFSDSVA
Assay: Inhibition of MSK1 (unknown origin) at 30 uM by microfluidic mobility shift assay relative to control
Listing of entries alongside the reported inhibition.

compound | inhibition
c1nc(N2CCC3(CCCCO3)CC2)c2nc[nH]c2n1 | 49%
CNC(=O)C1CCC2(CCN(c3ncnc4[nH]cnc34)CC2)NC1 (racemic) | 80%
c1ccc(C2CCC3(CCN(c4ncnc5[nH]cnc45)CC3)NC2)cc1 (stereo not drawn) | 78%

---

Listing of entries alongside the reported inhibition.
Biological target: Aurora kinase A (Homo sapiens) (UniProt O14965)
Sequence (O14965 whole entry): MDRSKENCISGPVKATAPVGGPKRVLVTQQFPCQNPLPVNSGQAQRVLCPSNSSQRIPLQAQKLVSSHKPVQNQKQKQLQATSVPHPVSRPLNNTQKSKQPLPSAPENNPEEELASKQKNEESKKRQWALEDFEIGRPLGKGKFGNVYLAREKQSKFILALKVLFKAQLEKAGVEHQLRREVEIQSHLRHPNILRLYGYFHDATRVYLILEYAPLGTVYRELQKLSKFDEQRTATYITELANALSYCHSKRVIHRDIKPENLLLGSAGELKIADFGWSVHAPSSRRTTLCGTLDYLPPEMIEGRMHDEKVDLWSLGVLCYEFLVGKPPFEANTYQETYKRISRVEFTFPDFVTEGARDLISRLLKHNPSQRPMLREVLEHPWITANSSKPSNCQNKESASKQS
Test: Inhibition of AURA (unknown origin) at 30 uM by microfluidic mobility shift assay relative to control

compound | inhibition [%]
c1nc(N2CCC3(CCCCC3)CC2)c2nc[nH]c2n1 | 71
CNC(=O)C1CCC2(CCN(c3ncnc4[nH]cnc34)CC2)NC1 (racemic) | 74
O=S(=O)(c1cccc2cnccc12)N1CCC2(CCNC2)CC1 | 51
O=S(=O)(c1cccc2cnccc12)N1CCC2(CCCCN2)CC1 | 71
O=S(=O)(c1cccc2cnccc12)N1CCC2(CCCNC2)CC1 | 24
c1nc(N2CCCC3(CCNCC3)C2)c2nc[nH]c2n1 | 70
c1ccc(C2CCC3(CCN(c4ncnc5[nH]cnc45)CC3)NC2)cc1 (stereo unspecified) | 90
NC1(Cc2ccccc2)CCN(S(=O)(=O)c2cccc3cnccc23)CC1 | 43
c1nc(N2CCC3(CCCN3)CC2)c2nc[nH]c2n1 | 55
c1ccc(C2CCNC3(CCN(c4ncnc5[nH]cnc45)CC3)C2)cc1 (racemic) | 76
c1nc(N2CCCC3(CCCNC3)C2)c2nc[nH]c2n1 (stereo unspecified) | 34
c1nc(N2CCC3(CCCNC3)CC2)c2nc[nH]c2n1 | 67
O=S(=O)(c1cccc2cnccc12)N1CCCC2(CCNCC2)C1 | 36
CN(C)C(=O)C1CCC2(CCN(c3ncnc4[nH]cnc34)CC2)NC1 (racemic) | 69
OC1CCC2(CCN(c3ncnc4[nH]cnc34)CC2)NC1 (racemic) | 80
c1ccc(CC2CCNC3(CCN(c4ncnc5[nH]cnc45)CC3)C2)cc1 (racemic) | 64
